- targetEntity: T1, human IL-36γ, truncated (human, UniProt Q9NZH8 18-169)
- T1 construct: Bought from R&D Systems (cat 6835-IL); also called human IL-36 gamma; hIL-36gamma
- T1 sequence: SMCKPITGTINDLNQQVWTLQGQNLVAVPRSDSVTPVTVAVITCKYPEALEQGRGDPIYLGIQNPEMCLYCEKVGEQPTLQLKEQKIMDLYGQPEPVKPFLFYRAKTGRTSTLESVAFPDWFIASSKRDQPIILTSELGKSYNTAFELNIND
- assaySummary: SPR, Biacore T200, antibody on chip, IL-36 as analyte, 1:1 Langmuir fit
attributeMeasured: koff (s⁻¹)
Numeric answer only, unit s⁻¹ assumed.

Examples with answers:
chimeric m/h 144D464A (antibody, human IgG1, lambda, V domains shown, Mouse VH/VL joined to human IgG1 constant and human Ig lambda (IGLC2) constant; also called chimeric mouse/human (m/h) 144D464A antibody) VH: EVQLQQSGAELVKPGASVRLSCTASGFNIKDTYIHWVKQRPEQGLEWIGRIDPAIGTTRYDPKFQGKATITTDTSSDTVHLQFSSLTSEDTAVYYCARLHYFGNNFFFDYWGQGTTLTVSS VL: QAVVTQESALTTSPGEAVTLTCRSSSGAVTTSNYANWVQEKPDHLFAGLIGGTNDRAPGVPARFSGSLIGDKAALTITGAQTEDEAIYFCALWFSNHWVFGGGTKLTVLG : 0.000218
144L472A (antibody, V domains shown, Mouse monoclonal from hybridoma; mouse IgG heavy and lambda light chain) VH: EVQLQQSGAELVKPGASVKLSCTVSGFNIKDTYMYWVKQRPEQGLEWIGRIDPANGYAKYDPKFQGKATLTADTSSNTAYLQLSSLTSEDTAVYFCARFHWYDSAFYFDFWGQGTTLTVSS VL: QAVVTQESALTTSPGETVTLTCRSSSGAVTTSNYANWVQEKPDHLFTGLIGGTNNRAPGVPARFSGSLIGDKAALTITGAQTEDEAIYFCGLWYSNHWVFGGGTKLTVL : 0.00208

# get_value(readout='koff', item= m/h 144D666C (antibody, human IgG1, lambda, V domains shown, Mouse VH/VL joined to human IgG1 constant and human Ig lambda (IGLC2) constant; also called chimeric mouse/human 144D666C) VH: EVQLQQSGAELVKPGASVKLTCTASGFNIKDTYIYWVKQRPAQGLEWIGRIDPANAYTKFDPKFQGKATLTADTSSNTAYLQLSSLTSEDTAVYYCTRFHWYGSSFFFDYWGQGTTLTVSS VL: QAVVTQESALTTSPGETVTLTCRSSTGAVTTSNYANWVQEKPDHLFTGLIGGTDNRPPGVPARFSGSLIGDKAALTITGAQTEDEAIYFCALWYSNLWVFGGGTKLTVLG )
0.000342

Please give the result for 144D464A (antibody, V domains shown, Mouse monoclonal from hybridoma; mouse IgG heavy and lambda light chain; also called mouse antibody 144D464A) VH: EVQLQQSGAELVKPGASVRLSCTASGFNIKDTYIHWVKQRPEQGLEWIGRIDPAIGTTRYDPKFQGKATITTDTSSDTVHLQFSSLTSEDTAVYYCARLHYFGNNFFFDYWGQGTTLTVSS VL: QAVVTQESALTTSPGEAVTLTCRSSSGAVTTSNYANWVQEKPDHLFAGLIGGTNDRAPGVPARFSGSLIGDKAALTITGAQTEDEAIYFCALWFSNHWVFGGGTKLTVL too.
0.00032

Please give the result for 144D666C (antibody, V domains shown, Mouse monoclonal from hybridoma; mouse IgG heavy and lambda light chain) VH: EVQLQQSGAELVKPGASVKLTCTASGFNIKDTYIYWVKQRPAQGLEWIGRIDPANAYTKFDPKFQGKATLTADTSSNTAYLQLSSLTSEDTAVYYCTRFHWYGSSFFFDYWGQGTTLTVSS VL: QAVVTQESALTTSPGETVTLTCRSSTGAVTTSNYANWVQEKPDHLFTGLIGGTDNRPPGVPARFSGSLIGDKAALTITGAQTEDEAIYFCALWYSNLWVFGGGTKLTVL too.
0.000676

Please give the result for 144L249B (antibody, V domains shown, Mouse monoclonal from hybridoma; mouse IgG heavy and lambda light chain; also called mouse antibody 144L249B) VH: EVQLQQSGAELVKPGASVKLSCTASGFNIKDTYIYWVKQRPEQGLEWIGRIDPAIGTTRYDPKFQGKATLTADTSSNTAFLQLSSLTSEDTAVYYCARYDYSGSSFYFDYWGRGTTLTVSS VL: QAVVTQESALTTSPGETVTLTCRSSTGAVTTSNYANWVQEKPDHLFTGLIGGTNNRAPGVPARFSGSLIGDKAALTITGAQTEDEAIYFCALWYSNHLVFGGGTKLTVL too.
0.000194

Please give the result for 144L124B (antibody, V domains shown, Mouse monoclonal from hybridoma; mouse IgG heavy and lambda light chain; Same VH and VL as 144L180A) VH: EVQLQQSGAELVKPGASVKLSCTASGFNIKDTYIYWVKQRPEQGLEWIGRIDPANGYTRYDPKFQGKATMTADTSSNTAYLQLSSLTSEDTAVYYCARYEYYDSSFYFDYWGQGTTLTVSS VL: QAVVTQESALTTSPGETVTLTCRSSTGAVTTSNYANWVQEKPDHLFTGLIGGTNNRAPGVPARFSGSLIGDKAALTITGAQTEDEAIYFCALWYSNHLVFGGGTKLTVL too.
0.000691
